System: SF-539 CNS
Experiment: NCI tumour cell line growth inhibition, 48 h
Exercise: for every item that follows, state its recorded TGI.

Fill in: TGI of NC(=O)c1c[se]c(C2OC(COP(=O)(O)CP(=O)(O)OCC3OC(n4cnc5c(N)ncnc54)C(O)C3O)C(O)C2O)n1 (stereo not given) is ___
> 100 µM

Record: COc1ccccc1/C=C\C(=O)c1ccccc1
26.7 µM

Record: Cc1cc([N+](=O)[O-])c(S(=O)(=O)c2ccccc2)c([N+](=O)[O-])c1
32.6 µM

Record: Cc1cc(S(=O)(=O)O)c(NC(=O)c2oc3cc(O)ccc3c(=O)c2C)cc1Cl
> 100 µM

Record: O=C(Cc1ccc(/C=C/C(=O)c2ncc[nH]2)cc1)Nc1ccc(C(F)(F)F)cc1
9.25 µM

----------
Test system: MALME-3M melanoma
Assay: NCI tumour cell line growth inhibition, 48 h
TEST READOUT: TGI (µM)
Output spec: scalar in µM, unitless text.

Fill in: TGI of NC(=O)C1=CC2C3C=CC2(O)C(=O)OC3O1 (stereo not given) is ___
4.03

Record: Cc1c(C(=O)OCc2ccccc2)[n+](=O)c2cc(F)c(F)cc2n1[O-]
4.48

Record: O=[N+]([O-])/C=C/c1cn(CCCCCn2cc(/C=C/[N+](=O)[O-])c3ccccc32)c2ccccc12
5.95

----------
Exercise: for every item that follows, state its recorded GI50.
Tested on: OVCAR-4 ovarian
Experiment: NCI tumour cell line growth inhibition, 48 h

Recorded GI50 for O=C(Cc1ccc(/C=C/C(=O)c2ncc[nH]2)cc1)Nc1ccc(C(F)(F)F)cc1 with OVCAR-4 ovarian, please?
5.12 µM

Record: COc1ccc(C(=O)C[C@]2(O)C(=O)Nc3c(Cl)ccc(Cl)c32)cc1
12 µM

Record: CN(C)CCCC1(c2ccc(F)cc2)OCc2cc(-c3cncc4ccccc34)ccc21 (centres undefined)
3.27 µM

Record: Nc1ncnc2c1c(-c1ccc(Oc3ccccc3)cc1)nn2C[C@@H]1SSC[C@@H]1O
1.33 µM

----------
Tested on: HOP-92 NSCLC
Test: NCI tumour cell line growth inhibition, 48 h
Exercise: for every item that follows, state its recorded log10(TGI).
Parameter value (number): base-10 log of TGI in µM.

Recorded log10(TGI) for COc1ccccc1/C=C\C(=O)c1ccccc1 with HOP-92 NSCLC, please?
1.50

Record: C=C(CNCCc1ccc(O)cc1)[C@@H]1CC[C@]2(CO)CC[C@]3(C)[C@H](CC[C@@H]4[C@@]5(C)CCC(N)C(C)(C)[C@@H]5CC[C@]43C)[C@@H]12 (some centres undefined)
0.40

Record: CCC(=O)c1cc([N+](=O)[O-])c(Br)s1
0.68

Record: COC1=CC(=O)C2=C(C1=O)[C@H]1CC[C@]3(C)[C@@H](OC(C)=O)CC[C@H]3[C@@H]1CC2
1.38

Record: Cc1n(Cc2ccc3ccccc3c2)c(Cl)c(Cl)[n+]1Cc1ccc2ccccc2c1
0.47

Record: CCOC1=C2NC(Cc3ccc(F)cc3)=NC2C(=O)c2ccccc21 (centres undefined)
1.71

----------
Test system: NCI-H460 lung
Test: NCI tumour cell line growth inhibition, 48 h
TEST READOUT: TGI

Fill in: TGI of COC(=O)[C@H](Cc1ccccc1)NC(=O)c1csc([C@@H](C[C@H](C(C)C)N(C)C(=O)[C@@H](NC(=O)[C@H]2CCCN2C)C2CC2)OC(C)=O)n1 is ___
> 33.3 µM

Record: COc1ccc(C(=O)c2ccc(-n3cc(/C=C/[N+](=O)[O-])c4ccccc43)cc2)cc1
> 66.1 µM

Record: COc1cc(O)c(C(C)=O)c(O)c1
> 100 µM

Record: C/C(=N/NC(=O)CC(=O)N(C(=O)c1ccccc1Cl)c1ccc(C)cc1)c1cc2ccccc2oc1=O
> 100 µM

Record: CC[C@@]1(O)C(=O)OCc2c1cc1n(c2=O)Cc2cc3c(N)cccc3nc2-1
0.462 µM

Record: CC1(C)CCC2(C(=O)OC3OC(CO)C(O)C(O)C3O)CCC3(CO)C(=CCC4C5(C)CC(O)C(O)C(C)(C(=O)OC6OC(CO)C(O)C(O)C6O)C5CCC43C)C2C1 (centres undefined)
> 100 µM

Record: Cc1ccc(S(=O)(=O)N/N=C2\C3CC4CC(C3)C2C4)cc1 (centres undefined)
> 100 µM

Record: CC(c1ccccc1)N1CC(C)(c2ccccc2)N(O)C(c2ccccc2)C1C (centres undefined)
27 µM

Record: O=c1oc2ccc(F)cc2c(=O)n1-c1ccc(Br)cc1F
23.7 µM

Record: CCCCCCCCCCCCCCCCS(=O)(=O)c1ccc(NN)cc1
> 10 µM

Record: c1ccc([P+](c2ccccc2)(c2ccccc2)c2ccc([P+](c3ccccc3)(c3ccccc3)c3ccccc3)cc2)cc1
> 100 µM

Record: NC(=O)c1cc(I)ccc1NC(=O)COc1ccccc1
> 100 µM

Record: COc1ccc2[nH]c3c(=O)[nH]ncc3c2c1
> 100 µM

Record: O=[N+]([O-])c1ccc(NS(=O)(=O)C(F)(F)F)cc1
> 100 µM

Record: COC(=O)n1c(C[P+](c2ccccc2)(c2ccccc2)c2ccccc2)cc2ccccc21
12.2 µM

Record: NS(=O)(=O)c1ccc(NC(=O)c2cccn3c(=O)c4ccccc4nc23)cc1
> 100 µM

Record: COc1cc2cc(C(=O)N3CC(CCl)c4c3cc([N+](C)(C)Cc3ccc([N+](=O)[O-])n3C)c3ccccc43)[nH]c2c(OC)c1OC (centres undefined)
5.41 µM

Record: CCCCCCCCCC(=O)Oc1cccc2onc(C)c12
> 100 µM

Record: OC(c1cc(-c2ccccc2)nc2c1ccc1ccccc12)C1CCCCN1 (centres undefined)
3.62 µM

----------
Tested on: HCT-116 colon
Test: NCI tumour cell line growth inhibition, 48 h; in the data active = GI50 below about 0.43 µM; inactive = the rest
Write down one outcome, taken from active, inactive

Lab log entry: O=C(O)C1C(C(=O)O)C2(Cl)C(Cl)=C(Cl)C1(Cl)C2(Cl)Cl.[Cd] (configuration not stated) — outcome as called in the assay?
inactive

Record: O=C(Cc1ccc(/C=C/C(=O)c2ncc[nH]2)cc1)Nc1ccc(C(F)(F)F)cc1
inactive

Record: COc1ccc2[nH]c(-c3ccccc3)cc2c1
inactive

Record: Nc1ncnc2c1c(-c1ccc(Oc3ccccc3)cc1)nn2C[C@@H]1SSC[C@@H]1O
active

Record: C[C@@H]1C/C=C\C(=O)O[C@H](/C=C/C#C/C=C/C(C)(C)[C@@H](O)c2cccc(O)c2Br)[C@@H](C)/C=C/[C@H](C)C[C@H](OC(N)=O)C1
active

Record: CCOCNc1ccc(N2C(=O)/C(=C/c3ccc(N(CC)CC)cc3)N=C2c2ccccc2)cc1
inactive

Record: CN(C)C(=O)SC1=C(c2c(Cl)cccc2Cl)C(=O)c2ccccc21
inactive

Record: Cn1cnc([N+](=O)[O-])c1Sc1nc(N)nc2nc[nH]c12
inactive

Record: CCCn1cnc2c(SCc3ccccc3)nc(N)nc21
inactive

Record: COc1ccc2cc(-c3c(-c4ccncc4)nc(-c4ccc(S(C)=O)cc4C)n3C)ccc2c1 (configuration not stated)
inactive

Record: Cc1ccc(/C=C2\CNC/C(=C\c3ccc(C)cc3)C2=O)cc1
active

Record: Cc1cc(=O)oc2cc(OCCn3c(C)nn(-c4ccc(Cl)cc4)c3=O)ccc12
inactive

Record: COc1cc2nnn3c4ncccc4c(N=O)c3c2cc1OC
active

Record: Cc1ccc(-n2c3c(c4c(CN5CCOCC5)c(O)ccc42)CCc2ccccc2C3=O)cc1
inactive

Record: O=c1oc2ccc(F)cc2c(=O)n1-c1ccc(Br)cc1F
inactive

Record: c1ccc(CC(NCCNC(Cc2ccccc2)c2ccccc2)c2ccccc2)cc1 (configuration not stated)
active

Record: COc1ccc(-c2nc3c(c(=O)n2C(C)=O)C(c2ccc(Cl)cc2)c2sc4c(Cl)cccc4c2O3)cc1 (configuration not stated)
active

----------
Test system: T-47D breast
Experiment: NCI tumour cell line growth inhibition, 48 h; in the data active = GI50 below about 0.43 µM; inactive = the rest
Write down one outcome, taken from label 1 for active, label 0 for inactive

Lab log entry: COc1cc2nnn3c4ncccc4c(N=O)c3c2cc1OC — outcome as called in the assay?
label 1

Record: Nc1ccn([C@@H]2C(F)=C(CO)[C@@H](O)[C@H]2O)c(=O)n1
label 0

Record: CN(C)CCCC1(c2ccc(F)cc2)OCc2cc(-c3cncc4ccccc34)ccc21 (centres undefined)
label 0

Record: COc1ccc(/C=C(/C(=O)n2cnnn2)c2cc(OC)c(OC)c(OC)c2)cc1
label 0

----------
Exercise: for every item that follows, state its recorded TGI.
System: UACC-257 melanoma
Experiment: NCI tumour cell line growth inhibition, 48 h

Fill in: TGI of CCOC(=O)C1CCCCc2sc(N)c(C#N)c21 (stereo not given) is ___
> 100 µM

Record: [N-]=[N+]=C(C(=O)C(=[N+]=[N-])C(=O)c1ccccc1)C(=O)c1ccccc1
> 100 µM

Record: COc1cc(-n2cc(-c3cc(O)c(C/C=C(\C)CCC=C(C)C)c(O)c3)nn2)cc2c1O[C@]1(C)CC[C@@H](O)C(C)(C)[C@H]1C2
48.4 µM

Record: CCCCCCCCCCCCCCCCOCC(Cl)COP(=O)(O)OP(=O)(O)OCC1OC(n2cnc3c(N)ncnc32)C(O)C1O (stereo not given)
> 100 µM

Record: CC1=C(C(=O)CC(=O)C(=O)NC2C3CC4CC(C3)CC2C4)Sc2ccccc2N1 (stereo not given)
> 100 µM
